# method: NCI Yeast Anticancer Drug Screen. Data for the rad50 strain (AID 155);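 also: 0% = growth of vehicle-only cultures of the same strain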
# conditions_used: S. cerevisiae rad50 strain growth inhibition; at 50.0 µM (retest, dose inferred, filed as 5.0); hits give high values
This is part of a sample that, as a whole, favours compounds with a hit. Of some 79,000 tested, about 15% had one in any assay.
reported_metric: growth inhibition (%)
Write the number in % without appending the unit.

Ask: What growth inhibition value was documented for this compound, O=S(c1cc(Cl)cc(Cl)c1O)c1cc(Cl)cc(Cl)c1O ?
Reply: 99

Ask: What growth inhibition value was documented for this compound, OCC1OC(n2cnc3c(=S)nc[nH]c32)C(O)C1O (stereo not given) ?
Reply: -13

Ask: What growth inhibition value was documented for this compound, CCCCCCCCCCCCCCCC[N+](C)(C)Cc1cnc[nH]1 ?
Reply: 98

Ask: What growth inhibition value was documented for this compound, O=C1N(c2ccccc2)C(=O)N1c1ccccc1 ?
Reply: -6

Ask: What growth inhibition value was documented for this compound, O=C(/C=C/c1ccccn1)c1ccccc1 ?
Reply: 59

Ask: What growth inhibition value was documented for this compound, COC(O)C(=O)c1c2c(cc3c1CCC3)CCCC2 (stereo not given) ?
Reply: 100

Ask: What growth inhibition value was documented for this compound, Cc1ccc(CC(=O)c2c(C)[nH]c3ccccc23)cc1C ?
Reply: 11

Ask: What growth inhibition value was documented for this compound, CC1C[C@]2(C)C(=O)Nc3ccccc3[C@@H]2Nc2ccccc21 (stereo not given in full) ?
Reply: 36

Ask: What growth inhibition value was documented for this compound, CC1(C)N(OC2CCCCO2)C(c2ccccc2)C(c2ccccc2)=[N+]1[O-] (stereo not given) ?
Reply: 24

Ask: What growth inhibition value was documented for this compound, O=C1NS(=O)(=O)c2ccccc21 ?
Reply: -81

Ask: What growth inhibition value was documented for this compound, O=c1[nH]c2cc([N+](=O)[O-])ccc2nc1/C=C(\O)c1ccc([N+](=O)[O-])cc1 ?
Reply: 86

Ask: What growth inhibition value was documented for this compound, CCCCCCC(CCCCCCCCCCC(=O)OCC(CC)CC)OC(=O)CC (stereo not given) ?
Reply: -4

Ask: What growth inhibition value was documented for this compound, Clc1ccc(CNNCc2ccc(Cl)cc2)cc1 ?
Reply: 85

Ask: What growth inhibition value was documented for this compound, COc1c(CBr)c(CBr)c(OC)c2c1C(=O)c1ccccc1C2=O ?
Reply: 99

Ask: What growth inhibition value was documented for this compound, OCC(O)C(O)C(O)C(O)C(/C=N/Nc1ccccc1)=N/Nc1ccccc1 (stereo not given) ?
Reply: 91

Ask: What growth inhibition value was documented for this compound, c1ccc(-c2conc2-c2ccccc2)cc1 ?
Reply: 95

Ask: What growth inhibition value was documented for this compound, CCC[CH2][Sn]1([CH2]CCC)[O]N=C(c2ccccc2)C(c2ccccc2)[O]1 (stereo not given) ?
Reply: 19

Ask: What growth inhibition value was documented for this compound, C=C(C)C(=O)Oc1ccc(N=Nc2ccccc2)ccc1=O ?
Reply: 89

Ask: What growth inhibition value was documented for this compound, O=S(=O)(O)c1ccc2cc(N=Nc3c(O)ccc4ccccc34)ccc2c1 ?
Reply: 15

Ask: What growth inhibition value was documented for this compound, O=C(c1ccco1)N(C(=S)N1CCN(c2ccccn2)CC1)C1CCCCC1 ?
Reply: 46

Ask: What growth inhibition value was documented for this compound, CC(CCc1nc2ccccc2s1)(c1ccc(O)cc1)c1ccc(O)cc1 ?
Reply: 99

Ask: What growth inhibition value was documented for this compound, COc1ccc(C2SC(N)=Nc3c2c(C)nn3C(=O)c2ccc(Cl)cc2)cc1OC (stereo not given) ?
Reply: 11

Ask: What growth inhibition value was documented for this compound, Cc1n(CC(C)C)c2c([n+]1C)C(=O)c1ccccc1C2=O ?
Reply: 98

Ask: What growth inhibition value was documented for this compound, Nc1ncnc2c1ncn2CCCl ?
Reply: -4

Ask: What growth inhibition value was documented for this compound, COC(=O)C(CC(C)=O)CS(=O)(=O)CC(=O)C(=O)Nc1cccc([N+](=O)[O-])c1 (stereo not given) ?
Reply: 98

Ask: What growth inhibition value was documented for this compound, CCCCCCCCCCNC1CC(OC2CC(O)(C(O)CO)Cc3c(O)c4c(c(O)c32)C(=O)c2c(OC)cccc2C4=O)OC(C)C1O (stereo not given) ?
Reply: 97

Ask: What growth inhibition value was documented for this compound, O=C1OC(c2ccccc2)C(c2ccccc2)=C1c1ccccc1 (stereo not given) ?
Reply: 91

Ask: What growth inhibition value was documented for this compound, CCCCCCCCCCCCCCCCBr ?
Reply: 0

Ask: What growth inhibition value was documented for this compound, Oc1ccc2ccccc2c1Cc1c(O)ccc2ccccc12 ?
Reply: 86

Ask: What growth inhibition value was documented for this compound, O=C(O)c1ccc(Nc2cnc3ccc(C(F)(F)F)cc3n2)cc1 ?
Reply: 16

Ask: What growth inhibition value was documented for this compound, COc1cc(OC)c(OC)cc1/C=C\c1ccnc2ccccc12 ?
Reply: 73

Ask: What growth inhibition value was documented for this compound, CN(C)/C=C1\CCc2ccc([N+](=O)[O-])cc2C1=O ?
Reply: 21

Ask: What growth inhibition value was documented for this compound, C/C(=N\NC(=S)N1CCN(c2ccccn2)CC1)c1nccs1 ?
Reply: 98

Ask: What growth inhibition value was documented for this compound, COc1ccc(/C=C/C(=O)CCN2CCN(CCC(=O)/C=C/c3ccc(OC)cc3)CC2)cc1 ?
Reply: 99

Ask: What growth inhibition value was documented for this compound, O=Cc1cc([N+](=O)[O-])ccc1O.[Eu] ?
Reply: 51
